# method notes: NCI Yeast Anticancer Drug Screen. Data for the bub3 strain (AID 167)
# experimental context: S. cerevisiae bub3 mutant strain, at 50.0 µM, stronger effect = higher value
About 79,000 compounds went through this panel and 15% of them were active in at least one assay; those are over-represented in the sample as a whole. The source made the active and inactive calls. Cut-off read from the data, not from the text of the source: active = growth inhibition above about 70%; inactive = the rest.
recorded endpoint: growth inhibition

Example entries begin here.
>>> recorded_result("Nc1nnc2nc(C(C(=O)/C=C\\c3cccc(O)c3)c3nc4nnc(N)n4[nH]c3=O)c(=O)[nH]n12")
"-5.35% (inactive)"
>>> recorded_result("C=CCOC(=O)C(C)OC(=O)/C(Cl)=C/C(=O)O (stereo unspecified)")
"10.5% (inactive)"
>>> recorded_result("COC(=O)c1cc(-c2ccncc2)[nH]c(=O)c1C#N")
"-15.2% (inactive)"
>>> recorded_result("CCCCCCCCCCCCCCCC(=O)OCC1OC(n2ccc(N)nc2=O)C(O)C1O (stereo unspecified)")
"4.1% (inactive)"
>>> recorded_result("CC1(C)SC2C(C(=O)O)N=C(Cc3ccccc3)N2C1C(=O)O (stereo unspecified)")
"-34% (inactive)"

stdin: Indicate the recorded growth inhibition value for this molecule: O=C(CCc1ccccc1Cl)CC(=O)CC(O)(c1ccccc1)c1ccccc1
stdout: 39.4% (inactive)

stdin: Indicate the recorded growth inhibition value for this molecule: Cn1cnc2ncnc(NCc3ccc(Cl)c(Cl)c3)c21
stdout: 4.6% (inactive)

stdin: Indicate the recorded growth inhibition value for this molecule: Cc1cc(=O)[nH]c2nc(N)ccc12
stdout: 7.8% (inactive)

The values you see were collected from PubChem BioAssay (NCI).
